Attribute: pIC50
- System: 134 cancer cell lines
- procedureSummary: Cell viability assay (ATPlite, 72 hours), IC50 on cancer cell line panel
- statedConditions: Homo sapiens, SW-620, read-out: IC50 in cell proliferation assay
pIC50 field: float, defined as -log10 of concentration (mol/L).

{"columns": ["compoundStructureString", "pIC50"],
 "data": [
  ["CCn1c(=O)c(-c2cc(NC(=O)Nc3ccccc3)c(F)cc2Br)cc2cnc(NC)cc21", 5.72]
]}

Then this compound:
Q) Returns the measured pIC50 for the input compound. Input: "C=CC(=O)N1CCC([C@@H]2CCNc3c(C(N)=O)c(-c4ccc(Oc5ccccc5)cc4)nn32)CC1"
A) 5.32
